# RUN DESCRIPTION: qHTS of small molecules that selectively kill Giardia lamblia: Hit Validation in HepG2 cytotox;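 further: compound exposure lasted overnight at 37 deg C; nearly all actives have a fitted effect of over 55% in size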
# MEASUREMENT CONTEXT: cell viability; HepG2 cytotoxicity; series mostly up to 38.3 µM
Screen size: about 1,300 compounds; about 150 (12%) were called active. Another 30% or so got no clear call; they are omitted. The call rests on the fitted dose curve; in most records, active means well fitted cell-killing curve with a large enough effect; inconclusive means small, poorly fitted or top-dose-only effect, or effect the other way; inactive means flat fitted curve, though single readings scatter. The entries come from a sample that favours actives as a whole.
Respond using exactly one of the listed classes: active, inactive

>>> label_value("CCOC(=O)C1CCCN(c2ccc([N+](=O)[O-])c3nonc23)C1 (configuration not stated)")
"inactive"
>>> label_value("Cc1nc2c(=O)n(C)c(=O)nc-2n(C)n1")
"active"
>>> label_value("COC(=O)c1nc(-c2ccc3c(n2)C(=O)C(N)=C(OC)C3=O)c(N)c(-c2ccc(OC)c(OC)c2O)c1C")
"active"
>>> label_value("CN(C)C(=O)Oc1ccc(Br)c2ccccc12")
"inactive"

Answer briefly: the call reported for O=c1c2ccccc2nc(/C=C/c2ccc([N+](=O)[O-])o2)n1-c1ccc(O)cc1 in this assay.
active

Please share the test call associated with CCOc1ccc(-n2c(-c3cccs3)nc3ccccc3c2=O)cc1 .
inactive

Field: outcome | Entry: O=[N+]([O-])c1ccc(O)c([N+](=O)[O-])c1
inactive
